These entries and their values trace back to ChEMBL document CHEMBL5214990.

Task for the reader: assign each of the following compounds its reported Activity.
# assayed system: Lanosterol 14-alpha demethylase (Candida albicans (strain SC5314 / ATCC MYA-2876) (Yeast))
# Sequence (P10613 whole entry): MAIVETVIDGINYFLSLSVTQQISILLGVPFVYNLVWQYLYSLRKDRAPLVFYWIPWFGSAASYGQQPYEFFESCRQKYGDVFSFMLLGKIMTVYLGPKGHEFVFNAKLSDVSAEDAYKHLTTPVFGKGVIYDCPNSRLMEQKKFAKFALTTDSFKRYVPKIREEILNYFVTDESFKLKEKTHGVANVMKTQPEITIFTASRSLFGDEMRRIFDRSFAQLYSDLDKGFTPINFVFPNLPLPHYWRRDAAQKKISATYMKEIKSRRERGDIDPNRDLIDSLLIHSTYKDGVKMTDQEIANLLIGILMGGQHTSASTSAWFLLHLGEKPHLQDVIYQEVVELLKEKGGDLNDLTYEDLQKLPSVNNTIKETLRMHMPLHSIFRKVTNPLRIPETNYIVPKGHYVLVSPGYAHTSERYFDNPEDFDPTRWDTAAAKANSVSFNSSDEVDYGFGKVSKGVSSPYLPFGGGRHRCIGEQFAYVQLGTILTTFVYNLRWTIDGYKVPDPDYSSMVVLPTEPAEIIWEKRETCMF
# protocol notes: Inhibition of CYP51 in Candida albicans ATCC SC5314 assessed as unknown sterol content at 4 ug/ml measured after 48 hrs by GC-MS analysis
# Parameters: scale not given: the % may be the effect or the level left
# setup conditions: at 4 µg/mL
Give bare numbers, in %.

Before answering, review these 3 worked examples.
>>> readout_value("C[C@H](C(=O)N(C)CC(O)(Cn1ccnc1)c1ccc(Cl)cc1)c1ccc(-c2ccccc2)c(F)c1 (some centres undefined)")
3.47
>>> readout_value("OC(Cn1cncn1)(Cn1cncn1)c1ccc(F)cc1F [FLUCONAZOLE]")
4.09
>>> readout_value("C[C@H](C(=O)N(C)CC(O)(Cn1ccnc1)c1ccc(Cl)cc1Cl)c1cccc(C(=O)c2ccccc2)c1 (some centres undefined)")
2.61

Pending compound:
// lookup Activity for C[C@H](C(=O)OC(Cn1ccnc1)c1ccc(F)cc1)c1ccc(-c2ccccc2)c(F)c1 (some centres undefined)
5.06
